# Experimental setup: 298.15 K; 101.33 kPa; Liquid
Could you please report measured mass density for the items listed next?
One number for each entry, in kg/m3.

>  <Smiles representation>
CC(C)OC(C)C

>  <mass density [kg/m3]>
719.17

$$$$
>  <Smiles representation>
OCC(F)(F)F

>  <mass density [kg/m3]>
1382.4

$$$$
>  <Smiles representation>
CCO

>  <mass density [kg/m3]>
785.6

$$$$

Lookup: Quick one: mass density for "FC(F)(F)c1ccccc1" ?
Found: 1182.18
